From: patent US12054502B2

- Tested on: human prostate cancer PC-3 cell line
- Measurement Description: MTT cell proliferation inhibition, PC-3
- Format: cell-based
- Reported Conditions: Homo sapiens, PC-3, 48 hours, average of three tests, read-out: IC50 tumor cell proliferation, PC-3
Structures can show the parent of a compound that is named as a salt.
Assay Readout: IC50 (µM)

Compound: CC(C)C[C@H](NC(=O)[C@@H](O)[C@H](N)Cc1ccccc1)B1OC(=O)C(CC(=O)O)(CC(=O)O)O1 [Bestazomib Citrate]
Measurement Unit: µM
Observed: 45.6
//
Compound: CC(C)C[C@H](NC(=O)[C@@H](O)[C@H](N)Cc1ccccc1)B(O)O [Bestazomib]
Measurement Unit: µM
Observed: 65.7

---

Quick reference for pIC50 among some compounds
- Experimental System: 20S Proteasome (Homo sapiens (Human), UniProt P28074)
pIC50: −log10 of the molar value. Where a name gives a salt, the structure may show the parent alone.

Compound: CC(C)C[C@H](NC(=O)[C@@H](O)[C@H](N)Cc1ccccc1)B(O)O [Bestazomib]
Experimental System: 20S Proteasome (Homo sapiens (Human), UniProt P28074)
pIC50: 4.99
//
Compound: CC(C)C[C@H](NC(=O)[C@@H](O)[C@H](N)Cc1ccccc1)B1OC(=O)C(CC(=O)O)(CC(=O)O)O1 [Bestazomib Citrate]
Experimental System: 20S Proteasome (Homo sapiens (Human), UniProt P28074)
pIC50: 5.07

---

- System: human normal hepatocyte HL7702
- Measurement Description: MTT proliferation inhibition on normal human cells, HL7702
- Format: cell-based
- Reported Conditions: L02, 48 hours, average of three tests
- Description: The in vitro cell proliferation inhibitory activity test of the target compound adopts the MTT method. […] The cell suspensions of the above cells were taken and counted under an inverted microscope, and the medium was added to adjust the number of cells to 1×10^5/mL. […] Measure the OD value of each well with a microplate reader at a wavelength of 570 nm, and the cell growth inhibition rate is calculated according to the following formula: […]
Structures can show the parent of a compound that is named as a salt.
Assay Readout: IC50 (µM)

Compound: CC(C)C[C@H](NC(=O)[C@@H](O)[C@H](N)Cc1ccccc1)B1OC(=O)C(CC(=O)O)(CC(=O)O)O1 [Bestazomib Citrate]
Measurement Unit: µM
Observed: 371
--
Compound: CC(C)C[C@H](NC(=O)CNC(=O)c1cc(Cl)ccc1Cl)B(O)O [Ixazomib, reference compound]
Measurement Unit: µM
Observed: 4.04

---

Counter-ions that a name gives are not always drawn.
The following molecules have recorded IC50 on UniProt P15144.
Sequence (P15144 whole entry, species assumed): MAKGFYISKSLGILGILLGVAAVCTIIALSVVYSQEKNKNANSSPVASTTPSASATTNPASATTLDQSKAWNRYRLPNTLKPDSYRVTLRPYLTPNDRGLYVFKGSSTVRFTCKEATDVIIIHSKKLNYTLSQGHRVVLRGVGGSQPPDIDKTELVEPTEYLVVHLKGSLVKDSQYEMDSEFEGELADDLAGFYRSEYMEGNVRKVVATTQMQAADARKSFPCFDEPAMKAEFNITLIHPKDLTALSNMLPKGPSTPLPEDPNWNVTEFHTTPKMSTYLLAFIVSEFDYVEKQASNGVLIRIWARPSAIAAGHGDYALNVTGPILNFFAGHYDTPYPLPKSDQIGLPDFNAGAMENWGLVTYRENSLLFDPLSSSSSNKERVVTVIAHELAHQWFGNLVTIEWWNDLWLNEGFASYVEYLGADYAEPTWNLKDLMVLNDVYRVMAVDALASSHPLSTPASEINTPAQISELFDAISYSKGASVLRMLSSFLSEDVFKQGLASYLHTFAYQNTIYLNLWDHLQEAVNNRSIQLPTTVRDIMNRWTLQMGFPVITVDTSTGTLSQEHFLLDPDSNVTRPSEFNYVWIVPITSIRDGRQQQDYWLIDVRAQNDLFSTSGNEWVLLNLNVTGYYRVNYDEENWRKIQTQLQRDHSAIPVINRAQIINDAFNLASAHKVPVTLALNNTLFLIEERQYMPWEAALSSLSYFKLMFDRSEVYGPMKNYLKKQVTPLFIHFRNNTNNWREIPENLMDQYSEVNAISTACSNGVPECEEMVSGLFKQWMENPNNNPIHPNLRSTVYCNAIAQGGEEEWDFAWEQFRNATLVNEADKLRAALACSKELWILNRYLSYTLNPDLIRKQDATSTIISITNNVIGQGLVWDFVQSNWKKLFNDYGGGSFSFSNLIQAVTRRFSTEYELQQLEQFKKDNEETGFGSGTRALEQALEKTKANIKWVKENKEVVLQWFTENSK

Molecule: CC(C)C[C@H](NC(=O)[C@@H](O)[C@H](N)Cc1ccccc1)B1OC(=O)C(CC(=O)O)(CC(=O)O)O1 [Bestazomib Citrate]
Experimental System: UniProt P15144
Measurement Unit: µM
IC50: 2.14
--
Molecule: CC(C)C[C@H](NC(=O)CNC(=O)c1cc(Cl)ccc1Cl)B(O)O [Ixazomib, reference compound]
Experimental System: UniProt P15144
Measurement Unit: µM
IC50: 18.2
